Just for reference, PubChem BioAssay (EPA / NIEHS) is where these values come from.

Read-out: Potassium channel subfamily K member 1 (KCNK1), KCNK1 (gene 3775)
Assay: LTEA_HepaRG_KCNK1: Life Technologies and Expression Analysis (LTEA) Assay for Potassium channel subfamily K member 1 (KCNK1) using HepaRG (AID 2283511)
Conditions: mRNA level, 48 h; actives raise or lower the signal
Active and inactive are the calls of the source. How the source made its calls: active means hit-call score of the fitted dose curve at least 0.9, where 1 is the maximum; inactive means score below 0.9.
Use one of these outcomes when replying: y for active, n for inactive

What was the test verdict on Cc1ccc(C)c(O)c1C ?
n

What was the test verdict on O=C(O)Cc1ccccc1Nc1c(Cl)cccc1Cl ?
n

What was the test verdict on CCCCCCCCCCCC(=O)OC ?
n

What was the test verdict on CNC(=O)[C@H]1O[C@@H](n2cnc3c(NCc4cc(Cl)ccc4OCc4cc(C)no4)ncnc32)[C@H](O)[C@@H]1N ?
n

What was the test verdict on NCCO ?
n

What was the test verdict on CC1(C)CC(N=C=O)CC(C)(CN=C=O)C1 (stereo unspecified) ?
n

What was the test verdict on CCCCOC(=O)CCCCCCCCC(=O)OCCCC ?
n

What was the test verdict on CC(C)c1ccc(C(=O)N=C(N)N)cc1S(C)(=O)=O ?
y

What was the test verdict on CC(=O)OCCOCCOCCOC(C)=O ?
n

What was the test verdict on FC(F)(F)C(F)(F)C(F)(F)C(F)(F)C(F)(F)C(F)(F)CCI ?
n

What was the test verdict on CC=Cc1ccc(O)c(OC)c1 ?
n

What was the test verdict on Cc1cc(=O)[nH]c(=S)[nH]1 ?
n

What was the test verdict on COc1ccc(S(=O)(=O)N2C(=O)[C@@](c3ccccc3OC)(N3C[C@H](O)C[C@H]3C(=O)N(C)C)c3cc(Cl)ccc32)c(OC)c1 ?
y

What was the test verdict on CCc1c(C(=O)NN2CCCCC2)nn(-c2ccc(Cl)cc2Cl)c1-c1ccc(Br)cc1 ?
y

What was the test verdict on C[C@]12C=CC(=O)C=C1CC[C@@H]1[C@@H]2C(=O)C[C@@]2(C)[C@H]1CC[C@]2(O)C(=O)CO ?
n

What was the test verdict on CC(=O)C(C)=CC1C(C)=CCCC1(C)C (stereo unspecified) ?
n

What was the test verdict on Cc1cccc(C)c1O ?
n

What was the test verdict on O=c1[nH]cc(F)c(=O)[nH]1 ?
n

What was the test verdict on CCCCc1ccc2c(n1)[C@@H](c1ccc(OC)cc1C[C@H](C)C(=O)O)[C@H](C(=O)O)[C@H]2c1ccc2c(c1)OCO2 ?
n

What was the test verdict on C=CCOC(=O)c1ccccc1C(=O)OCC=C ?
n

What was the test verdict on C1CCC(SSC2CCCCC2)CC1 ?
n

What was the test verdict on Oc1ccc2ccccc2c1N=Nc1ccccc1 ?
n

What was the test verdict on CCCCCCCCCCCCCCCCCC(=O)O ?
n

What was the test verdict on NS(=O)(=O)c1cc2c(cc1Cl)NCNS2(=O)=O ?
n

What was the test verdict on CCCCCCCC=O ?
n

What was the test verdict on CC(CO)OC(C)CO (stereo unspecified) (tested in a mixture with another compound) ?
n

What was the test verdict on COC(=O)c1ccc(O)cc1 ?
n

What was the test verdict on NCC1(Cc2noc(=O)[nH]2)CCCCC1 ?
n

What was the test verdict on Nc1ccc(S(=O)(=O)c2ccc(N)cc2)cc1 ?
n

What was the test verdict on COc1ccc2c(c1)c(CC(=O)O)c(C)n2C(=O)c1ccc(Cl)cc1 ?
n

What was the test verdict on CCCc1cc(=O)[nH]c(=S)[nH]1 ?
n

What was the test verdict on Cc1ccccc1Cl ?
n

What was the test verdict on Cc1c(C(=O)O)c(O)cc2c1C(=O)c1c(O)c([C@@H]3O[C@H](CO)[C@@H](O)[C@H](O)[C@H]3O)c(O)c(O)c1C2=O ?
n

What was the test verdict on CCCCCC(=O)O ?
n

What was the test verdict on Nc1ccc2c(c1)C(=O)c1ccccc1C2=O ?
n

What was the test verdict on CN1CCCC1=O ?
n

What was the test verdict on COc1cc(-c2nc(NC(=O)c3cc4cc(C)cc(C)c4n3CC(=O)O)sc2CCC2CCCCC2)c(OC)cc1Cl ?
n

What was the test verdict on Cc1oc(-c2ccccc2)nc1CCOc1cccc2c1ccn2CCC(=O)O ?
n

What was the test verdict on Cc1ccc(Cl)cc1 ?
n

What was the test verdict on c1cc(-c2ccncc2)ccn1 ?
n

What was the test verdict on CCCCCCCCCCCCCCCC ?
n
